biological target: Hypoxia-inducible factor 1-alpha (Homo sapiens, UniProt Q16665); test: Inhibition of HIF-1alpha in human HeLa cells after 6 hrs by luciferase reporter gene assay
Sequence (Q16665 whole entry): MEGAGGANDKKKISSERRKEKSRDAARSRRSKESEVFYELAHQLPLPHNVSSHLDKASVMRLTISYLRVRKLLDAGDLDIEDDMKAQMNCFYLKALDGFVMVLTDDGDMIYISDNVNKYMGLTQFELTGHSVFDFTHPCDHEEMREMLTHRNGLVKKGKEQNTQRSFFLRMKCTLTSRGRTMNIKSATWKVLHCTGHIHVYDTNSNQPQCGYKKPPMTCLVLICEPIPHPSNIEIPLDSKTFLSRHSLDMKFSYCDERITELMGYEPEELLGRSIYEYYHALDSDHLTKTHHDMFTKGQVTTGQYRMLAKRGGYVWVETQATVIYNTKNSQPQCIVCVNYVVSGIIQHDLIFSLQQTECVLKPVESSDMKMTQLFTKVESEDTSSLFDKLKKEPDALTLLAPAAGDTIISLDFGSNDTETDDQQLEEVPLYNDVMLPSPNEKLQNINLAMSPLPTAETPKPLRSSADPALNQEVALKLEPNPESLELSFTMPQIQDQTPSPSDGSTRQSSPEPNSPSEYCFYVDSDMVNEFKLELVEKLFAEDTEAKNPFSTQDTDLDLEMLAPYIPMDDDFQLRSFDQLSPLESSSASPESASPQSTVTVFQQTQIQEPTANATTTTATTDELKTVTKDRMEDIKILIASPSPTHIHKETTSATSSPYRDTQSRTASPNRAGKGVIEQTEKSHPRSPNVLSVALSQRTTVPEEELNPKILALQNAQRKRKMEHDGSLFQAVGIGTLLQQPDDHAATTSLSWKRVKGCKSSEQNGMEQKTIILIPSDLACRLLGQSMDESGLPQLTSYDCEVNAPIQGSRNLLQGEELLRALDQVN

smilesRepr: Cc1ccc(C(=O)COC(=O)c2cccc(NC(=O)c3ccc([N+](=O)[O-])cc3[N+](=O)[O-])c2)cc1
IC50 (nM): 2600

Source: BindingDB's records for doi:10.1021/acs.jmedchem.8b01596
